Test system: MALME-3M melanoma
PROTOCOL_DETAILS: NCI tumour cell line growth inhibition, 48 h; in the data active = GI50 below about 0.43 µM; inactive = the rest
Reply using exactly one outcome from active, inactive

Prompt: Could you check what this test reported for `Cl.Fc1c[c-]c(-c2ccccn2)c(F)c1.[Pt].c1ccc(P(c2ccccc2)C([PH+](c2ccccc2)c2ccccc2)[PH+](c2ccccc2)c2ccccc2)cc1` ?
Response: inactive

Prompt: Could you check what this test reported for `O=[N+]([O-])c1ccccc1N/N=C\c1c[nH]c2ccccc12` ?
Response: inactive

Prompt: Could you check what this test reported for CC1COc2c(N3CCN(C)CC3)c(F)cc3c(=O)c(C(=O)O)cn1c23 (stereo not given) ?
Response: inactive

Prompt: Could you check what this test reported for `CN(Cc1cc(Br)cc(Br)c1O)Cc1cc(Br)cc(Br)c1O` ?
Response: inactive

Prompt: Could you check what this test reported for `COc1ccc2c(c1)[nH]c(=O)c1c3cc(OC)ccc3cn21` ?
Response: active

Prompt: Could you check what this test reported for COc1ccc(C(SCC(N)C(=O)O)(c2ccccc2)c2ccccc2)cc1 (stereo not given) ?
Response: inactive

Prompt: Could you check what this test reported for `Clc1ccc2c(c1)N(CCCN1CCCC1)c1ccccc1S2` ?
Response: inactive

Prompt: Could you check what this test reported for `O=C1Nc2c(C(F)(F)F)cccc2[C@@]1(c1ccc(O)cc1)c1ccc(OC(F)(F)F)cc1` ?
Response: inactive

Prompt: Could you check what this test reported for `Cc1cc(O)ccc1C1=NN(c2ccc(S(C)(=O)=O)cc2)C(=O)CC1` ?
Response: inactive

Prompt: Could you check what this test reported for Clc1cccc(Cl)c1C1CSc2ccccc2N=C1c1ccccc1 (stereo not given) ?
Response: inactive

Prompt: Could you check what this test reported for Cc1ccc(C(SCC(N)C(=O)O)(c2ccc(C)cc2)c2ccc(C)cc2)cc1 (stereo not given) ?
Response: inactive

Prompt: Could you check what this test reported for `COc1cc2nc(SCC(=O)Nc3cc(OC)c(OC)c(OC)c3)n(Cc3ccccc3)c(=O)c2cc1OC` ?
Response: inactive

Prompt: Could you check what this test reported for CC(C)(C)C(=O)OCOP(=O)(OCOC(=O)C(C)(C)C)C1CC(O)N(O)C1=O (stereo not given) ?
Response: inactive

Prompt: Could you check what this test reported for `Cc1ccccc1-n1ncc(C(=O)c2ccccc2)c1N` ?
Response: inactive

Prompt: Could you check what this test reported for `O=C(N/N=C/c1cc(Cl)cc(Cl)c1[O-])c1ccccc1O.O=C(N/N=C/c1cc(Cl)cc(Cl)c1[O-])c1ccccc1O.[Zn+2]` ?
Response: inactive

###

Test system: NCI/ADR-RES ovarian
PROTOCOL_DETAILS: NCI tumour cell line growth inhibition, 48 h; in the data active = GI50 below about 0.43 µM; inactive = the rest
Reply using exactly one outcome from yes (active), no (inactive)

Prompt: Could you check what this test reported for `C/C(=C\CCc1ccoc1)CC/C=C(\C)CCCN1CCOCC1` ?
Response: no

Prompt: Could you check what this test reported for `COc1ccc(C(=O)COC(=O)[C@H](C[Se][Se]C[C@H](NC(=O)c2ccc(Br)cc2F)C(=O)OCC(=O)c2ccc(OC)cc2)NC(=O)c2ccc(Br)cc2F)cc1` ?
Response: yes

Prompt: Could you check what this test reported for `Cl.Fc1c[c-]c(-c2ccccn2)c(F)c1.[Pt].c1ccc(P(c2ccccc2)C([PH+](c2ccccc2)c2ccccc2)[PH+](c2ccccc2)c2ccccc2)cc1` ?
Response: no

Prompt: Could you check what this test reported for CC1COc2c(N3CCN(C)CC3)c(F)cc3c(=O)c(C(=O)O)cn1c23 (stereo not drawn) ?
Response: no

Prompt: Could you check what this test reported for `C=C(C)[C@@H]1CC[C@]2(C(=O)O)CC[C@]3(C)[C@H](CC[C@@H]4[C@@]5(C)C[C@@H](CC#Cc6ccc(C(F)(F)F)cc6)[C@H](O)C(C)(C)[C@@H]5CC[C@]43C)[C@@H]12` ?
Response: no

Prompt: Could you check what this test reported for `CCOC(=O)n1cc(C2=C(c3cn(C)c4ccccc34)COC2=O)c2ccccc21` ?
Response: yes

Prompt: Could you check what this test reported for `O=[N+]([O-])c1ccccc1N/N=C\c1c[nH]c2ccccc12` ?
Response: no

Prompt: Could you check what this test reported for `CS(=O)(=O)Nc1ccc(-c2cc(-c3ccccc3)cc(C(N)=O)c2N)cc1` ?
Response: no

###

Test system: SNB-75 CNS
PROTOCOL_DETAILS: NCI tumour cell line growth inhibition, 48 h
For each entry below, report its TGI value.

Prompt: Name the recorded TGI for O=P1(Oc2ccccc2)N(CCCl)CCN1c1ccccc1 (stereo unspecified) .
Response: > 100 µM

Prompt: Name the recorded TGI for `O=C(c1ccccc1)c1ccc(-n2c3ccccc3c3ccc4c(c32)C(=O)C=CC4=O)cc1` .
Response: > 58.4 µM

Prompt: Name the recorded TGI for `COC1CCN(C(=O)c2cc(Cc3n[nH]c(=O)c4ccccc34)ccc2F)CC1` .
Response: > 100 µM

Prompt: Name the recorded TGI for O=C(O)C[C@H]1CCCCC12CCOC2=O (stereo partly specified) .
Response: > 100 µM

Prompt: Name the recorded TGI for CC(SC(=S)N1CCOCC1)C(=O)Nc1nnc(-c2ccccc2)o1 (stereo unspecified) .
Response: > 100 µM

Prompt: Name the recorded TGI for `CC(=O)Nc1ccc(-c2nc3ccccc3s2)cc1I` .
Response: 67.4 µM

Prompt: Name the recorded TGI for `CO[C@@H]1C=C[C@@]23c4cc5c(cc4C(=O)O[C@H]2CN(C)[C@H]3C1)OCO5` .
Response: > 100 µM

Prompt: Name the recorded TGI for `c1ccc(CNCCCCNCCCNCc2ccccc2)cc1` .
Response: 49.4 µM

Prompt: Name the recorded TGI for CCCCCCCCCCCCCC(=O)OCC1OC(n2cc(F)c(=O)[nH]c2=O)C(NC(=O)OCc2ccccc2)C(OC(=O)CCCCCCCCCCCCC)C1O (stereo unspecified) .
Response: > 100 µM

Prompt: Name the recorded TGI for `CCOC(=O)CSC(=O)NCCCl` .
Response: > 100 µM

Prompt: Name the recorded TGI for COc1ccc(C(CC(=O)C(C)(C)CN2CCCCC2)SCCS(=O)(=O)O)cc1 (stereo unspecified) .
Response: 91.9 µM

Prompt: Name the recorded TGI for `CCOC(=O)n1cc(C2=C(c3cn(C)c4ccccc34)COC2=O)c2ccccc21` .
Response: 1.22 µM

Prompt: Name the recorded TGI for `CCOC(=O)CSc1nnc2cc(CN3CCCC3)c(-c3ccc(Cl)cc3)nn12` .
Response: > 100 µM

Prompt: Name the recorded TGI for `Cc1ncc2c(=O)c3c(oc2n1)c1ccccc1n3Cc1ccccc1` .
Response: > 100 µM

Prompt: Name the recorded TGI for `COc1cc(S(=O)(=O)Nc2ccc(-c3csc(N)n3)cc2)ccc1Cl` .
Response: 39.2 µM

Prompt: Name the recorded TGI for `COc1ccc2c(c1)[nH]c(=O)c1c3cc(OC)ccc3cn21` .
Response: 1.61 µM

###

Tested on: MDA-N
PROTOCOL_DETAILS: NCI tumour cell line growth inhibition, 48 h
Where a SMILES comes first, the peptide text is derived from it. The star is where a group is joined. Cbz = O=C(OCc1ccccc1)*; Boc = CC(C)(C)OC(=O)*; OSu = O=C1CCC(=O)N1O*; Bn = c1ccc(C*)cc1
MEASUREMENT_KIND: TGI

Prompt: Name the recorded TGI for `COc1cc(OC)c(/C=C\c2cc(/C=C/c3c(OC)cc(OC)cc3OC)c3ccccc3[n+]2C)c(OC)c1` .
Response: 8.19 µM

Prompt: Name the recorded TGI for `CC(C)(C)Nc1noc(=O)n1C(C)(C)C` .
Response: > 100 µM

Prompt: Name the recorded TGI for CC(=O)NC(CCC(=O)C=[N+]=N)C(=O)O (stereo not given) .
Response: > 100 µM

Prompt: Name the recorded TGI for `CO/N=C(\C(=O)N(C)n1cnnc1)c1csc(NC(c2ccccc2)(c2ccccc2)c2ccccc2)n1` .
Response: > 10 µM

Prompt: Name the recorded TGI for `CCOC(=O)c1c(Cl)nc2ccccc2c1N=[N+]=[N-]` .
Response: 44.2 µM

Prompt: Name the recorded TGI for `COc1ccc(OCc2ccc3nc(-c4ccccc4)c(Cl)nc3c2)cc1` .
Response: > 100 µM

Prompt: Name the recorded TGI for `N#Cc1ccccc1NC(=O)C(=O)c1c(O)c2ccccc2oc1=O` .
Response: > 100 µM

Prompt: Name the recorded TGI for CC(C)(C)OC(=O)NC(Cc1ccc(OCc2ccccc2)cc1)C(=O)NC(CCCCNC(=O)OCc1ccccc1)C(=O)ON1C(=O)CCC1=O (stereo not given) (Boc-Tyr(Bn)-Lys(Cbz)-OSu; configuration not given here) .
Response: 29.9 µM

Prompt: Name the recorded TGI for CC(NC(=O)c1ccccc1)NC(=O)C(C)C(=O)Nc1ccccc1 (stereo not given) .
Response: > 100 µM

Prompt: Name the recorded TGI for `CCN(CC)CCNC(=O)c1cc2cc(NC(=O)c3cc4cc(NC(=O)c5cc6cc(N)ccc6[nH]5)ccc4[nH]3)ccc2[nH]1` .
Response: > 100 µM
